# Tested on: HCT-15 colon
# experimental protocol: NCI tumour cell line growth inhibition, 48 h
recorded metric: TGI

>>> experimental_result("Cc1sc2c(c1C)C(c1ccc(Cl)cc1)=N[C@@H](CC(=O)NCCCN1CCN(C)CC1)c1nnc(C)n1-2")
"> 100 µM"
>>> experimental_result("COc1ccc(-c2[nH]nc(N)c2-c2cc(OC)c(OC)c(OC)c2)cc1")
"> 100 µM"
>>> experimental_result("CCC1(c2ccc(N)cc2)CCC(=O)NC1=O (centres undefined)")
"> 5000 µM"

Now for a further molecule.
Query block: Query (molecule): O=S(=O)(c1cc(Cl)ccc1Cl)N1CCN(c2cccc(Cl)c2)CC1 ; field requested: TGI
Result block: > 100 µM

====

# Test system: SK-OV-3 ovarian
# experimental protocol: NCI tumour cell line growth inhibition, 48 h
Residues, ends and D or L forms follow the SMILES beside them. *: point of attachment. Cbz = O=C(OCc1ccccc1)*
recorded metric: TGI

Reference set, count: 8
>>> experimental_result("C=CCCCC1(C)CCNC1=S (stereo not drawn)")
"> 100 µM"
>>> experimental_result("C=C1C(=O)C2=CC1CCC(=O)C1(C)CCC(OC(C)=O)C(C)(C)C1CC2O (stereo not drawn)")
"23 µM"
>>> experimental_result("C(#CC1(Nc2ccccc2)CCN(Cc2ccccc2)CC1)C1(Nc2ccccc2)CCN(Cc2ccccc2)CC1")
"13.1 µM"
>>> experimental_result("C=C1CC2(CCS(=O)(=O)c3ccccc32)OC1=O (stereo not drawn)")
"44.1 µM"
>>> experimental_result("CC(C)C[C@@H](C=O)NC(=O)[C@H](CC(C)C)NC(=O)[C@H](CC(C)C)NC(=O)OCc1ccccc1 (Cbz-Leu-Leu-Leu-aldehyde)")
"5.34 µM"
>>> experimental_result("CN(C)c1ccc(/C=C(\\NC(=O)c2ccccc2)C(=O)Nc2cccc(C(=O)NCCCO)c2)cc1")
"> 100 µM"
>>> experimental_result("C=CC(=O)Nc1cccc(Oc2nc(Nc3ccc(N4CCN(C)CC4)cc3OC)ncc2Cl)c1")
"5.33 µM"
>>> experimental_result("Cc1cn(Cc2cn(CC3OC(n4cc(C)c(=O)[nH]c4=O)CC3O)nn2)c(=O)[nH]c1=O (stereo not drawn)")
"> 100 µM"

Kindly give each listed record's TGI.
1. O=C(CSSCC(=O)OCCS(=O)(=O)Nc1ccc(Br)cc1)OCCS(=O)(=O)Nc1ccc(Br)cc1
2. CC(=Nc1ccc(Cl)c(Cl)c1)c1ccncc1
3. Cn1c(=O)ccc2c(=O)c3ccccc3oc21
4. CC1(C)CCCCCCCCCC2CC2CCC(C)(C)C1=O (stereo not drawn)
5. COC(=O)CNc1nc(N(C)O)nc(N(C)O)n1
6. CCNCCNc1cc(-c2ccc(C(F)(F)F)cc2)c(C#N)c2nc3cc(Cl)c(Cl)cc3n12
7. COC(=O)/N=[N+](\[O-])C(c1ccccc1)c1ccccc1
8. Cc1cc(S(=O)(=O)NC(=NCCc2ccccc2)NN)c(S)cc1Cl

Result block:
89.8 µM
> 100 µM
> 100 µM
> 100 µM
> 100 µM
3.45 µM
> 100 µM
53.7 µM

Kindly give each listed record's TGI.
1. O=C1C(c2ccccc2)=C(c2ccccc2)C(c2ccc(Sc3ccc(C4=C(c5ccccc5)C(=O)C(c5ccccc5)=C4c4ccccc4)cc3)cc2)=C1c1ccccc1
2. NC(=O)CCSC(CC(=O)c1ccc(Cl)cc1)c1ccc(Cl)cc1 (stereo not drawn)
3. COc1cc2nc3cc([N+](=O)[O-])ccc3c(NCCNCC(C)O)c2cc1OC (stereo not drawn)

Result block:
1. > 100 µM
2. > 100 µM
3. 5.35 µM

Kindly give each listed record's TGI.
1. O=C(O)CCCN=C(C1=C(O)C(=O)N(c2ccccc2)C1=O)c1ccccc1
2. COc1cc(CCC(=O)NC[C@@H](O)c2ccccc2)ccc1O

Result block:
1: > 100 µM; 2: > 100 µM

Kindly give each listed record's TGI.
1. CC(C(=O)n1ccnc1)N1c2ccccc2Sc2ccccc21 (stereo not drawn)
2. COc1cc(/C=C/C(=O)c2c(-c3ccc(F)cc3)nc3sc(C)nn23)cc(OC)c1OC
3. CCCCCCCCCCOCCOCCOCCOCCCCC(O)CCCCCCCC1=C[C@H](C)OC1=O (stereo partly drawn)
4. Cc1cn(C2CCN(CC3COC(C)(C)O3)O2)c(=O)[nH]c1=O (stereo not drawn)
5. CC(C)(C)c1cc(-c2nc3ccc(N4CCN(CCO)CC4)cc3[nH]2)cc(C(C)(C)C)c1O
6. O=C1c2cc(F)ccc2-c2c1c1ccc([N+](=O)[O-])cc1c(=O)n2CCCBr
7. CN(C)C(=NC#N)N(Cc1ccccc1)Cc1ccccc1

Result block:
1. > 100 µM
2. 8.91 µM
3. 41.4 µM
4. > 100 µM
5. 86.1 µM
6. > 100 µM
7. > 100 µM

====

For each record, write down the corresponding GI50.
# Tested on: EKVX NSCLC
# experimental protocol: NCI tumour cell line growth inhibition, 48 h

Reference set, count: 5
>>> experimental_result("Cc1ccccc1C(C(=O)NC1CCCCC1)N(C(=O)CNc1ncccc1F)c1cccc(F)c1 (centres undefined)")
"> 100 µM"
>>> experimental_result("COc1cc2nc3cc([N+](=O)[O-])ccc3c(NCCNCC(C)O)c2cc1OC (centres undefined)")
"1.62 µM"
>>> experimental_result("NC(=O)c1cc(Br)ccc1NC(=O)/C=C/c1ccccc1")
"3.27 µM"
>>> experimental_result("CN(C)CCOc1ccccc1NC1=C(Cl)C(=O)C(Nc2ccccc2OCCN(C)C)=C(Cl)C1=O")
"5.33 µM"
>>> experimental_result("O=c1oc2ccc(Br)cc2c(=O)n1-c1ccc(Cl)cc1F")
"1.45 µM"

Kindly give each listed record's GI50.
1. Nc1ncn([C@H]2C[C@H](OP(=O)(O)OC[C@H]3O[C@@H](n4cnc5c(=O)[nH]c(N)nc54)C[C@@H]3O)[C@@H](CO)O2)c(=O)n1
2. NC(N)=N/N=C/c1c(-c2cccnc2)nc2sc(Cl)cn12
3. C=CC(=O)N1CC[C@H](n2nc(C#Cc3cc(OC)cc(OC)c3)c3c(N)ncnc32)C1
4. CC[PH+](CC)CC.CC[PH+](CC)CC.[Au]

Result block:
1: > 100 µM; 2: 16.7 µM; 3: 30.7 µM; 4: 5.83 µM

====

# Tested on: SK-OV-3 ovarian
# experimental protocol: NCI tumour cell line growth inhibition, 48 h; in the data active = GI50 below about 0.43 µM; inactive = the rest
// classify into yes = active, no = inactive

Would you please look over these solved cases?
>>> label_class("Oc1ccccc1/C=N\\NC(=S)N/N=C/c1ccccc1O")
"no"
>>> label_class("CN(C)CCNC(=O)c1ccc2oc3cc4ccccc4c(=O)n3c2c1")
"no"

Now, please, on to the next compound.
Query block: Hi, sorry to bother you, what did the test record for Cc1sc2c(c1C)C(c1ccc(Cl)cc1)=N[C@@H](CC(=O)NCCCN1CCN(C)CC1)c1nnc(C)n1-2 ?
Result block: yes

====

# Tested on: IGROV1 ovarian
# experimental protocol: NCI tumour cell line growth inhibition, 48 h
recorded metric: TGI

Reference set, count: 5
>>> experimental_result("Cc1ccc(C(=O)N/N=C(\\N=Nc2ccccc2Cl)c2ccc(N(C)C)cc2)cc1")
"> 100 µM"
>>> experimental_result("CCOC(=O)C1(N)CC1")
"> 100 µM"
>>> experimental_result("O=S(=O)(O)c1ccc2c(N=Nc3ccccc3)c(O)ccc2c1")
"> 100 µM"
>>> experimental_result("COC(=O)[C@]12CSC[C@H]1C[C@H](c1cccc3ccccc13)N2")
"> 100 µM"
>>> experimental_result("COc1ccc(-c2cn(-c3cc(OC)c(OC)c(OC)c3)c(=O)[nH]2)cc1OC")
"> 100 µM"

Kindly give each listed record's TGI.
1. Nc1nn(C(=O)Nc2c(F)cccc2F)c2ccccc12
2. COC(=O)c1ccc2c(c1)sc1nc(-c3ccc(OC)cc3)cn12
3. O=c1c(-c2ccccc2)c(SCCN2CCOCC2)n(-c2ccccc2)c(=S)n1-c1ccccc1
4. CCOC(=O)/C(=C\NC(C)(C)CO)c1nc2ccccc2[nH]1
5. O=C(O)C12CCC(CC1=O)C2 (stereo not drawn)
6. COC(=O)C(=O)C(/C(=N/N)C(=O)Nc1ccccc1C(N)=O)c1nc2ccc([N+](=O)[O-])cc2[nH]c1=O (stereo not drawn)
7. CC1=CC(=O)N(n2c(Cc3ccc(Cl)cc3)n[nH]c2=O)C1=O
8. O=c1[nH]c(=O)n(CCOc2ccc(Cl)cc2)cc1Nc1ccccc1

Result block:
1. > 100 µM
2. > 100 µM
3. > 100 µM
4. > 100 µM
5. > 100 µM
6. > 100 µM
7. > 100 µM
8. > 100 µM

Kindly give each listed record's TGI.
1. O=C1/C(=C/c2ccc(O)c(O)c2)CC/C1=C\c1ccc(O)c(O)c1
2. CCCC(=O)OC[n+]1ccc(-c2c(COC(=O)NC(C)C)c(COC(=O)NC(C)C)c3n2CCC3)cc1
3. COc1ccc(N=Nc2c(N)nn(C)c2N)cc1

Result block:
1: > 58.5 µM; 2: > 100 µM; 3: > 100 µM

Kindly give each listed record's TGI.
1. CC1=C(C(=O)CC(=O)C(=O)Nc2ccc(C)c(C)c2)Sc2ccccc2N1
2. CN1CCN(Cc2nc3c(s2)CCc2sccc2-3)CC1
3. O=c1[nH]c2c(c(=O)[nH]1)C(c1ccc([N+](=O)[O-])cc1)c1c([nH]c(=O)[nH]c1=O)O2
4. [Cu+2].[NH-]C(CC(=O)O)C(=O)O.[NH-]C(CC(=O)O)C(=O)O (stereo not drawn)

Result block:
["> 100 µM", "> 100 µM", "> 100 µM", "> 100 µM"]

Kindly give each listed record's TGI.
1. Cc1ccc(S(=O)(=O)OCCOCCOCCOCCOCCOS(=O)(=O)c2ccc(C)cc2)cc1
2. Cc1ccc(Sc2ccccc2N)cc1
3. Cc1sc2c(c1C)C(c1ccc(Cl)cc1)=N[C@@H](CC(=O)NCCCN1CCN(C)CC1)c1nnc(C)n1-2

Result block:
> 100 µM
> 100 µM
> 100 µM
